// reported EC50 for each item listed
Method Description: viability of HCT116 lacking mutant beta-catenin – cell-based, human colon tumor, dose response (AID 1045);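 note: HCT116 colon tumor cells with beta catenin knocked out; cells exposed to compound for 60 hours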
Type: functional
Calls of active or inactive are those of the source. The rule behind the calls is not given here.

Take a look at these entries with their results.
{"Molecule": "COc1ccc(Cn2c(SCc3cc(C)ccc3C)nc3cc(OC)c(OC)cc3c2=N)cc1", "EC50": "1.88 µM (active)"}
{"Molecule": "O=C(N/N=C/c1c[nH]c2ccccc12)c1[nH]c2ccc(Br)cc2c1-c1ccccc1", "EC50": "0.378 µM (active)"}
{"Molecule": "O=C(/C=C/c1ccccc1)/C=C/c1ccccc1", "EC50": "0.953 µM (active)"}

Reported EC50 for CC1CCc2cc(F)ccc2N1C(=O)CSc1n[nH]c2c3ccccc3nc-2n1 (stereo not given) was 22.5 µM (active)

Reported EC50 for `Cc1ccc(NN2C(=O)C=C(c3ccc(Cl)cc3)C2=O)cc1` was 24.1 µM (active)
